Molecular target: Aurora-A kinase (Homo sapiens, UniProt O14965)
Construct: 6 histidine tag with spacer region and rTEV protease cleavage site (pFastBac HTc) (N)
Sequence (O14965 1-403): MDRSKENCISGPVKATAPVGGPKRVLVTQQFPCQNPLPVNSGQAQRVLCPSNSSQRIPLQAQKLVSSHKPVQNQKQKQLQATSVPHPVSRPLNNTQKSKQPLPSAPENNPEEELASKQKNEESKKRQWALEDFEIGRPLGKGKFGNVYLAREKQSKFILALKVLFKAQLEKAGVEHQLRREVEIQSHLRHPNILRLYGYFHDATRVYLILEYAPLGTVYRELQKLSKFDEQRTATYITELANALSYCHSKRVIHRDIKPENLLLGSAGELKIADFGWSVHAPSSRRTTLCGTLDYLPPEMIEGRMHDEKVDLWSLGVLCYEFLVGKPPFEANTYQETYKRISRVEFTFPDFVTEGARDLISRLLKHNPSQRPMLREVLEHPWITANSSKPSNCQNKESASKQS
Assay: In vitro Aurora-A kinase inhibition test
Please respond with reported IC50 for every item in the list.
Answer shape: numeric part, then the unit.

Briefly, IC50 measured for COc1cc2c(Nc3cn(CC(=O)Nc4cccc(F)c4)nn3)ncnc2cc1OCCCCl : 900 nM

// CCCN(CCO)CCCOc1cc2ncnc(Nc3cn(CC(=O)Nc4cccc(F)c4)nn3)c2cc1OC : IC50 value = 500 nM
